Measured Ki accompanies every entry in the list below.
- SYSTEM NAME: ERα (estrogen receptor α) (Homo sapiens, UniProt P03372)
- Sequence (P03372 whole entry): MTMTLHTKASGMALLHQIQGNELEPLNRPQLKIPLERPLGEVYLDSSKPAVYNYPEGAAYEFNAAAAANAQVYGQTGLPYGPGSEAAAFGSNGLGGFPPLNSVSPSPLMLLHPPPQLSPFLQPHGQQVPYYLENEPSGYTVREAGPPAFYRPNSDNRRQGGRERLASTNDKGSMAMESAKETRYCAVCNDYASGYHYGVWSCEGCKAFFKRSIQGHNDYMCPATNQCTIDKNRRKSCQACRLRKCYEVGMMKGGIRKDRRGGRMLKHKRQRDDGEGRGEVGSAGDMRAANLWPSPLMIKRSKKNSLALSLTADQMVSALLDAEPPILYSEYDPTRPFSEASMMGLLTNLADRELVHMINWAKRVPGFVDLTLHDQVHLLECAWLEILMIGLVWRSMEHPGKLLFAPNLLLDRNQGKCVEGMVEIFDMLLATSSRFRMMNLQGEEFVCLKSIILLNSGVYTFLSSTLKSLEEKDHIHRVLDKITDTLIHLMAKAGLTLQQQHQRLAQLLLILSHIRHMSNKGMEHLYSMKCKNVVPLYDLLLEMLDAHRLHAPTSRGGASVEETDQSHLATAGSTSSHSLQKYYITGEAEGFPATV
- MEASUREMENT DESCRIPTION: competitive radioligand binding assay with tritiated […]β-estradiol on recombinant hERα

SMILES REPR: C[C@]12CC[C@@H]3c4ccc(O)cc4CC[C@H]3[C@@H]1CC[C@@]2(O)C#Cc1cc(CN(CC(=O)[O-])CC(=O)[O-])nc(CN(CC(=O)[O-])CC(=O)[O-])c1.[Gd+3].[Na+]
Ki: 970 nM

Consider the record given below.
Recorded Ki (compound `CC/C(=C(\c1ccc(C#Cc2cc(CN(CC(=O)[O-])CC(=O)[O-])nc(CN(CC(=O)[O-])CC(=O)[O-])c2)cc1)c1ccc(OCCN(C)C)cc1)c1ccccc1.[Gd+3].[Na+]` ): 130 nM
